Test Target: T1, 4-1BB Fc (human, UniProt Q07011 24-183)
T1 construct: also called rh-41BB; 41BB-hFc
T1 sequence (Q07011 24-183): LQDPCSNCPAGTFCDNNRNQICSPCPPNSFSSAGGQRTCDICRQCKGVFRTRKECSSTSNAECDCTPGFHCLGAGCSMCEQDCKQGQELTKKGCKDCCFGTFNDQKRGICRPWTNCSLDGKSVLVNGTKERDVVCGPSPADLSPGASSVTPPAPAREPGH
Test Protocol: ELISA, 4-1BB Fc coated, VHH at 500 nM

{"Binder": "4-1BB-39 (VHH, not shown: small tags and cut ends) VHH: QVQLGSLGGGSAQPGGSLRLSCTGSGNVYDFVVMGWYRQFPGRQRELVANITGRASPNYVDSVKGRFTISRDNAQNTVHLQMNNLKVEDSAIYYCYAAQQLTTIAGVMTLDYWGSGTQVTVSS", "OD450": 0.098}
{"Binder": "4-1BB-56 (VHH, not shown: small tags and cut ends) VHH: QVQLVESGGGLVQTGGSLRLSCAASGRISTIDTMFWYRQTPGKERDWVAFIPKDGLPTYVDSVKGRFTVSRDNARNTVYLQMNGLKPEDTAVYYCAVDVQEDRMRTYWGQGTQVTVSS", "OD450": 2.7}
{"Binder": "4-1BB-1 (VHH, not shown: small tags and cut ends) VHH: QVQLVESGGGLVQAGGSLRLSCAASENIFSFNAMAWYRQAPGKQRELVALITGDGTTKYADSVKGRFTIARLNAKNTVNLEMNSLKPEDTAVYTCAALRNSDRTSWGQGTQVTVSS", "OD450": 0.547}
{"Binder": "4-1BB-9 (VHH, not shown: small tags and cut ends) VHH: QVQLVESGGGLVQAGGSLRLSCAASGSIFSYNAVAWYRQAPGKQRELVAVITSGGETTKYADSVKGRFTISRDITKNAVDLQMVSLKPEDTAVYTCAALRNSGSTSWGQGTQVTVSS", "OD450": 0.264}

These measurements were taken from patent US20250376535A1.
